system: Streptococcus pyogenes C203; test: MIC, standard agar-dilution assay (Table II); type: cell-based; design: unit not given here
minimal inhibitory concentration (MIC) values for the compounds below.
quantity.kind: minimal inhibitory concentration (MIC)

• CCC1OC(=O)CC(O)C(C)C(OC2OC(C)C(O)C(N(C)C)C2O)C(CC=O)CC(C)C(=O)C=CC(C)=CC1COC(=O)CSc1ccc(Cl)c(Cl)c1 (centres unmarked) [Compound 38] = 0.06
• CCC1OC(=O)CC(O)C(C)C(OC2OC(C)C(O)C(N(C)C)C2O)C(CC=O)CC(C)C(=O)C=CC(C)=CC1COC(=O)Cc1ccc(Cl)cc1 (centres unmarked) [Compound 32, 23-O-(p-Chlorophenylacetyl)-OMT] = 0.06
• CCC1OC(=O)CC(O)C(C)C(OC2OC(C)C(OC(=O)c3ccccc3)C(N(C)C)C2OC(=O)c2ccccc2)C(CC=O)CC(C)C(=O)C=CC(C)=CC1CO (centres unmarked) [Compound 5, 2',4'-Di-O-benzoyl-OMT] = 2
• CCC1OC(=O)CC(O)C(C)C(OC2OC(C)C(O)C(N(C)C)C2O)C(CC=O)CC(C)C(=O)C=CC(C)=CC1COC(=O)c1ccccc1 (centres unmarked) [Compound 26, 23-O-Benzoyl-OMT] = 0.125
• CCC1OC(=O)CC(O)C(C)C(OC2OC(C)C(O)C(N(C)C)C2O)C(CC=O)CC(C)C(=O)C=CC(C)=CC1COC(=O)Cc1cccnc1 (centres unmarked) [Compound 44, 23-O-(3-Pyridylacetyl)-OMT] = 0.015
• CCC(=O)OCC1C=C(C)C=CC(=O)C(C)CC(CC=O)C(OC2OC(C)C(O)C(N(C)C)C2O)C(C)C(O)CC(=O)OC1CC (centres unmarked) [Compound 14, 23-O-Propionyl-OMT] = 0.125
• CCC1OC(=O)CC(O)C(C)C(OC2OC(C)C(O)C(N(C)C)C2OC(C)=O)C(CC=O)CC(C)C(=O)C=CC(C)=CC1COC(=O)Cc1ccccc1 (centres unmarked) [Compound 28] = 0.125
• CCC(=O)OCC1C=C(C)C=CC(=O)C(C)CC(CC=O)C(OC2OC(C)C(OC(=O)CC)C(N(C)C)C2OC(=O)CC)C(C)C(O)CC(=O)OC1CC (centres unmarked) [Compound 8, 2',4',23-Tri-O-propionyl-OMT] = 0.25
• CCC1OC(=O)CC(O)C(C)C(OC2OC(C)C(OC(C)=O)C(N(C)C)C2OC(C)=O)C(CC=O)CC(C)C(=O)C=CC(C)=CC1COC(=O)Cc1cccnc1 (centres unmarked) [Compound 43] = 0.06
• CCC1OC(=O)CC(O)C(C)C(OC2OC(C)C(O)C(N(C)C)C2O)C(CC=O)CC(C)C(=O)C=CC(C)=CC1COC(=O)Cc1ccc([N+](=O)[O-])cc1 (centres unmarked) [Compound 65] = 0.06
• CCC(=O)OC1C(OC2C(CC=O)CC(C)C(=O)C=CC(C)=CC(COC(C)=O)C(CC)OC(=O)CC(O)C2C)OC(C)C(O)C1N(C)C (centres unmarked) [Compound 11] = 0.5
